- system: T1, human CD4 on the surface of SKW3 cells or human PBMCs (human, UniProt P01730 26-458)
- T1 construct: whole, on cells; SKW3 CD4 knockout cells served as the negative cell line; also called hCD4; SKW3 WT
- procedureDetails: FACS binning on SKW3 cells; competitor RPA-T4-PE-Dazzle 594 (its signal read); background 783, max binding 15000
Some binders, each annotated with its measured RPA-T4-PE-Dazzle 594 signal.

| binder | RPA-T4-PE-Dazzle 594 signal |
| --- | --- |
| 75110_09N20A (antibody, V domains shown, Tested here as non-clonal hybridoma supernatant from AlivaMab Mouse Kappa mice (detected with anti-mouse Fc and anti-human kappa)) VH: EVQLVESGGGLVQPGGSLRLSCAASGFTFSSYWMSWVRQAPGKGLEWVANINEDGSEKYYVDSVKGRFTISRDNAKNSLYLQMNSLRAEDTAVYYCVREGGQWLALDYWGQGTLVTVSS VL: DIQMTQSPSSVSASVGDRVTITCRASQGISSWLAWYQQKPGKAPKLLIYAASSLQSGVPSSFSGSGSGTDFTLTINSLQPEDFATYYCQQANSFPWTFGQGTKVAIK | 14700 |
| 75110_01A06A (antibody, V domains shown, Tested here as non-clonal hybridoma supernatant from AlivaMab Mouse Kappa mice (detected with anti-mouse Fc and anti-human kappa)) VH: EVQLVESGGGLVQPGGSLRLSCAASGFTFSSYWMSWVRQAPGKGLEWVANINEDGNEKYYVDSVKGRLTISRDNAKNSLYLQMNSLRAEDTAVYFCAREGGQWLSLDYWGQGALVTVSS VL: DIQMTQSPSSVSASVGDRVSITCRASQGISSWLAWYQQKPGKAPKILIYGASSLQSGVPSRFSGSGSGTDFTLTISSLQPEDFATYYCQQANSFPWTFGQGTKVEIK | 14700 |
| 75110_04K10A (antibody, V domains shown, Tested here as non-clonal hybridoma supernatant from AlivaMab Mouse Kappa mice (detected with anti-mouse Fc and anti-human kappa)) VH: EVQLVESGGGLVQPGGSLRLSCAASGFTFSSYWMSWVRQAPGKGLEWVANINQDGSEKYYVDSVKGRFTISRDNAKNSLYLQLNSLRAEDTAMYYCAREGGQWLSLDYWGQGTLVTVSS VL: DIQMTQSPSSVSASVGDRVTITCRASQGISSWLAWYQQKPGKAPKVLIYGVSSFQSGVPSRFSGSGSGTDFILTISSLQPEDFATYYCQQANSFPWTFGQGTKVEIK | 9800 |
